system: c-Abl (mouse); assay: phosphorylation enrichment, bacterial display (enrichment ratio); higher = better substrate or ligand; peptides without Tyr show the background;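 note: 11-residue human phosphosite peptides and single-mutation variants displayed on the E. coli surface, counted by deep sequencing, each peptide's frequency after selection divided by its frequency in the unselected input library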;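 note: frequency after pTyr selection over input frequency; kinase dosed for 20-30% of maximal phosphorylation in three min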
MEASUREMENT NAME: phosphorylation enrichment
Form rule: numeric answer, no unit written next to it.

Form field: reported phosphorylation enrichment of AIIEEYLHLSD [EIF4G1_Y1253_N1257S] 0.885

Others:
Give its phosphorylation enrichment value. Item: RLEGVYGNNID [PTEN_Y46_R47G] 0.384

Endpoint output: phosphorylation enrichment of MIRSAYALGGL [CPS1_Y590] . Value? 0.417

Which value of phosphorylation enrichment has been reported for PYSNSYENSLI [EPOR_Y489_P488S] in the records? 1.06

---

molecular target: MERTK (UniProt Q12866); test: phosphorylation enrichment, bacterial display (enrichment ratio); higher = better substrate or ligand; peptides without Tyr show the background
Sequence (Q12866 whole entry, looked up): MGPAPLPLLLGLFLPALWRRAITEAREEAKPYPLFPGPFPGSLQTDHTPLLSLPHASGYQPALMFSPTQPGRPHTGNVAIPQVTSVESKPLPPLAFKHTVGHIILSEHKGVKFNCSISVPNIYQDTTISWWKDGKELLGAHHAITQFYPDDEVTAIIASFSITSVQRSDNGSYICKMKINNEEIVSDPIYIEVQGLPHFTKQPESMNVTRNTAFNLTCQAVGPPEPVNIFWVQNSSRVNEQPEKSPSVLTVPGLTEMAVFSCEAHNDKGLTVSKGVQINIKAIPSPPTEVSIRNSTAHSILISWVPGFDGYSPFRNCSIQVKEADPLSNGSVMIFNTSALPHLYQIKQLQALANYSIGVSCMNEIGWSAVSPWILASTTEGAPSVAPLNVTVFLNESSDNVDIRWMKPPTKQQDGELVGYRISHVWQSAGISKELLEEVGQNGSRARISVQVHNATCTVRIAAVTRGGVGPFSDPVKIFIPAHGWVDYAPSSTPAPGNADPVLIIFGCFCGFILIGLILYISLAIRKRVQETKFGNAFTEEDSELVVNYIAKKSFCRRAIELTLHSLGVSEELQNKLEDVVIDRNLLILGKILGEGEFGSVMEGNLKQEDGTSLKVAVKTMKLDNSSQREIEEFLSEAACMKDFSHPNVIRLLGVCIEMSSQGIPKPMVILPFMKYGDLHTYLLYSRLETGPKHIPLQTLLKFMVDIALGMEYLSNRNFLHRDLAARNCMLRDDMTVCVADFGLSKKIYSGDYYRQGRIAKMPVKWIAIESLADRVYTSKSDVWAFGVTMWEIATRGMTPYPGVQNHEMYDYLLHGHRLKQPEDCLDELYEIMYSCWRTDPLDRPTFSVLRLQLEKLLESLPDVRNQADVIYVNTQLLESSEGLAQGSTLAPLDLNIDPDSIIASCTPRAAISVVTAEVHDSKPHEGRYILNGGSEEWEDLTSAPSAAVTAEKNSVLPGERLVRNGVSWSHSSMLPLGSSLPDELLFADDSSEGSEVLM
Cut-off 0.5 on phosphorylation enrichment, inclusive. At or above means Condition met; below means Condition not met.

Does the sequence QEALEYFMKQM [PIK3CA_Y1038] have recorded phosphorylation enrichment that is 0.5 or more? Condition met

phosphorylation enrichment >= 0.5 for QSSALYEDHFL [ASS1_Y83_R86H_YF] ? Condition met

Threshold query (phosphorylation enrichment >= 0.5) on KQELVYPNKKL [OPTN_Y356_T357P] Condition not met

Now look at this entry.
Is phosphorylation enrichment for IFHENYNAGTF [CFI_Y421_YF] at or above 0.5? Condition not met

---

This listing pairs sequences with measured phosphorylation enrichment.
molecular target: MERTK (UniProt Q12866); test: phosphorylation enrichment, bacterial display (enrichment ratio); higher = better substrate or ligand; peptides without Tyr show the background
Give only the figure.

What does the record list as phosphorylation enrichment for DTERIYDDDFF [UBA1_Y560] ? 0.702

State the recorded phosphorylation enrichment for this entry: SLAARYFNWVS [FLT4_Y1230_YF] 0.636

Which phosphorylation enrichment is reported for this sequence? SKEPYYVHCIK [MYO1D_Y586_R588H] 0.559

More entries:
Need phosphorylation enrichment, item LPKEQYLFTKE [AFG3L2_Y614_YF] 0.499

What value of phosphorylation enrichment has been recorded for this entry: FDDDDYDMDFV [BLM_Y296_T298M] 0.438

---

Overview of recorded phosphorylation enrichment for various sequences
target: FGFR1 (UniProt P11362); assay: phosphorylation enrichment, bacterial display (enrichment ratio); higher = better substrate or ligand; peptides without Tyr show the background
Sequence (P11362 whole entry, looked up): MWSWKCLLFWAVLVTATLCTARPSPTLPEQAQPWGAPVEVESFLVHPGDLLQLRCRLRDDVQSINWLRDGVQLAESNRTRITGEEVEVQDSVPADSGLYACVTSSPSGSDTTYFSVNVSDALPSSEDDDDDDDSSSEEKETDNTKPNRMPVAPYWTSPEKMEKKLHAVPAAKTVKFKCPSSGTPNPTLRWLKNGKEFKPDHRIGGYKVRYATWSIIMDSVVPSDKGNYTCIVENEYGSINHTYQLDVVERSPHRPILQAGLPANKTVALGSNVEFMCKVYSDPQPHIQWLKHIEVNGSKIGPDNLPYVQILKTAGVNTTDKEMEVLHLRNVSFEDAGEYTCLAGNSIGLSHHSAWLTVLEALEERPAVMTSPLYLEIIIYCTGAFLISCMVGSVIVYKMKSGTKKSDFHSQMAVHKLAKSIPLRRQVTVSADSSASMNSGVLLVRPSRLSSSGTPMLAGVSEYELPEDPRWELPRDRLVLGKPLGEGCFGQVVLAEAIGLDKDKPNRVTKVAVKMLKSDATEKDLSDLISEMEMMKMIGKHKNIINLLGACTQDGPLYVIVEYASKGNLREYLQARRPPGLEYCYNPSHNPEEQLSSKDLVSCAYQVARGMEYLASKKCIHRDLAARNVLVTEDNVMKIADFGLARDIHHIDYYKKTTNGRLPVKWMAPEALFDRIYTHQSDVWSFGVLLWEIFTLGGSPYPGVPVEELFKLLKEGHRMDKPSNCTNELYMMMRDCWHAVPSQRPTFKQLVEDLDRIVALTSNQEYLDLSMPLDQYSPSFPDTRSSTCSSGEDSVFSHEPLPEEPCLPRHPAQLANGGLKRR
Format: numeric value only, no unit, no commentary.

Previously resolved entries follow.
Any idea what its phosphorylation enrichment is? The sequence is LSPNMYNSKLW [TARSL2_Y457] 0.75

I have this sequence here, QMVGMYASSFM [AVPR2_Y124_YF] , and I need its recorded phosphorylation enrichment. 0.73

Further cases:
Look up phosphorylation enrichment: RLLVVYPWTKR [HBB_Y36_Q40K] 0.694

Returns the measured phosphorylation enrichment for the input sequence. Input: GNHVSYFQSDG [CACNA1C_Y1757_YF] 0.495

Give its phosphorylation enrichment value. Item: FPPISYLNAIS [MVD_Y276] 0.473

I am curious: what phosphorylation enrichment value has been reported for TFSPPYYHRNC [HGD_Y333_R330S] ? 0.565

Reported phosphorylation enrichment, sequence HNQDGYSFPSR [LDLR_Y845_YF] : ____ 0.906

What value of phosphorylation enrichment has been recorded for this entry: PSTYRYERGSR [INPPL1_Y663_P659S] 0.641

// query phosphorylation enrichment value for entry LDFNEYFRGLN [HPRT1_Y198_D201G_YF] 0.788

Item AGIVVYNIIGW [MYH7_Y588_D587V] has what recorded phosphorylation enrichment? 0.506

Which phosphorylation enrichment is reported for this sequence? EEGNPYYSGAR [MCCC2_Y520_S523G] 0.542
